Would you kindly list pIC50 for each of these molecules?
# MEASURED_TARGET: recombinant human ALDH2 (Homo sapiens (Human))
# PROTOCOL_DESCRIPTION: ALDH2 assay (NADH formation)
# MEASUREMENT_CONDITIONS: 10 nM recombinant human ALDH2, 150 uM formaldehyde, 60 min pre-incubation; read-out: IC50 hALDH2
When answering, recall that pIC50 equals minus log10 of the concentration in mol/L, and write that number alone.

// query pIC50 value for entry "CC1(C(=O)N2CC(C#Cc3ccc4c(=O)c(-c5ccc(NS(C)(=O)=O)cc5)coc4c3)C2)COC1"
8.22

Now the molecule "CS(=O)(=O)Nc1ccc(-c2coc3cc(C#CC4CCNCC4)ccc3c2=O)cc1"
6.76

Query "CS(=O)(=O)Nc1ccc(-c2coc3cc(C#CC4CN(C(=O)OC5CCCC5)C4)ccc3c2=O)cc1" next
8.05

What do we get for "CS(=O)(=O)Nc1ccc(-c2coc3cc(C#Cc4ccccn4)ccc3c2=O)cc1" ?
7.05

And for "CS(=O)(=O)Nc1ccc(-c2coc3cc(C#CC4CC4)ccc3c2=O)cc1" ?
7.24

Now the molecule "CN(C(=O)OC(C)(C)C)C1(C(=O)N2CC(C#Cc3ccc4c(=O)c(-c5ccc(NS(C)(=O)=O)cc5)coc4c3)C2)CC1"
8.64

Moving on to CC1(O)CC(C(=O)N2CC(C#Cc3ccc4c(=O)c(-c5ccc(NS(C)(=O)=O)cc5)coc4c3)C2)C1 (centres unmarked)
8.30

Please give the result for "CC(C)(C)OC(=O)NC1(C(=O)N2CC(C#Cc3ccc4c(=O)c(-c5ccc(NS(C)(=O)=O)cc5)coc4c3)C2)CCC1" too.
8.22

---

# MEASURED_TARGET: recombinant human ALDH2 (Homo sapiens (Human))
# PROTOCOL_DESCRIPTION: ALDH2 assay (NADH formation)
# MEASUREMENT_CONDITIONS: 10 nM recombinant human ALDH2, 150 uM formaldehyde, 60 min pre-incubation; read-out: IC50 hALDH2
pIC50: −log10 of the molar value.
Given measured pIC50, output Yes if it is greater than or equal to 7 and No if not.

Hi, just wondering whether "CC(C)(C)OC(=O)NC1(C(=O)N2CC(C#Cc3ccc4c(=O)c(-c5ccc(NS(C)(=O)=O)cc5)coc4c3)C2)CC1" shows pIC50 of 7 or higher.
Yes

Query "CS(=O)(=O)Nc1ccc(-c2coc3cc(C#CC4(O)CCCCC4)ccc3c2=O)cc1" next
No

// next record CC(O)C(=O)N1CC(C#Cc2ccc3c(=O)c(-c4ccc(NS(C)(=O)=O)cc4)coc3c2)C1 (stereo not drawn)
Yes

Entry "CS(=O)(=O)Nc1ccc(-c2coc3cc(C#CC4CN(C(=O)C5CC5)C4)ccc3c2=O)cc1" please
Yes

Same read-out for "CC1(C(=O)N2CC(C#Cc3ccc4c(=O)c(-c5ccc(NS(C)(=O)=O)cc5)coc4c3)C2)CC1" ?
Yes

Also "COCC#Cc1ccc2c(=O)c(-c3ccc(NS(C)(=O)=O)cc3)coc2c1" ?
Yes

Input "CS(=O)(=O)Nc1ccc(-c2coc3cc(C#CC4CCOCC4)ccc3c2=O)cc1"
Yes

Param item: "COCCC(=O)N1CC(C#Cc2ccc3c(=O)c(-c4ccc(NS(C)(=O)=O)cc4)coc3c2)C1"
Yes

What do you have for "CS(=O)(=O)Nc1ccc(-c2coc3cc(C#Cc4cncnc4)ccc3c2=O)cc1" ?
Yes

Proceed to "CC(C)(O)C(=O)N1CC(C#Cc2ccc3c(=O)c(-c4ccc(NS(C)(=O)=O)cc4)coc3c2)C1"
Yes

And what about the compound "CC(C)n1cncc1C#Cc1ccc2c(=O)c(-c3ccc(NS(C)(=O)=O)cc3)coc2c1" ?
Yes

Do the same for "CS(=O)(=O)Nc1ccc(-c2coc3cc(C#CC4CNC4)ccc3c2=O)cc1" please
No

What about "CC(C)(O)C#Cc1ccc2c(=O)c(-c3ccc(NS(C)(=O)=O)cc3)coc2c1" ?
No

---

# MEASURED_TARGET: recombinant human ALDH2 (Homo sapiens (Human), UniProt P05091)
# Sequence (P05091 18-517): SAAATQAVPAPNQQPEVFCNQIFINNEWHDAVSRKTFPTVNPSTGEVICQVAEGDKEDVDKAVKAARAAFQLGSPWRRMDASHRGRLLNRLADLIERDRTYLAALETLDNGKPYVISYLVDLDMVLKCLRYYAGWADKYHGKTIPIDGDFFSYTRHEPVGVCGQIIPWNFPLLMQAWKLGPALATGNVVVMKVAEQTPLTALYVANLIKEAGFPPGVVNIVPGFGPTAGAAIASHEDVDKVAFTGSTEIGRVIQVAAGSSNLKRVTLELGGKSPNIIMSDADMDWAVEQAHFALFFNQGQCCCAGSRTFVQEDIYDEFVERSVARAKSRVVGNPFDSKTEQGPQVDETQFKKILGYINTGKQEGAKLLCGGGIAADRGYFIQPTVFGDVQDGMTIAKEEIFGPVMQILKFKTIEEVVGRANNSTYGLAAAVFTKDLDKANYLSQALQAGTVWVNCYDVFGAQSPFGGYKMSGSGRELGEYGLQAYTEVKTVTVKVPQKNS
# PROTOCOL_DESCRIPTION: ALDH2 assay (NADH formation)
# MEASUREMENT_CONDITIONS: 10 nM recombinant human ALDH2, 150 uM formaldehyde, 60 min pre-incubation; read-out: IC50 hALDH2
Record form. Attribute: pIC50. Fill in for each entry.
In textbook form, pIC50 equals minus log to base ten of the concentration in mol/L.

Item under review: "Cc1ncc(C#Cc2ccc3c(=O)c(-c4ccc(NS(C)(=O)=O)cc4)coc3c2)n1C" . Reported pIC50?
7.82

Now give it for CS(=O)(=O)Nc1ccc(-c2coc3cc(C#CC4CN(C(=O)C5CC5(F)F)C4)ccc3c2=O)cc1 (stereo not drawn) too.
8.30

Same question, "CS(=O)(=O)Nc1ccc(-c2coc3cc(C#Cc4cccnc4)ccc3c2=O)cc1" this time
7.68

Similarly, "CS(=O)(=O)Nc1ccc(-c2coc3cc(C#CC4CN(C(=O)C5CCC5)C4)ccc3c2=O)cc1" ?
8.40

Continue with "CN(C)CCC(=O)N1CC(C#Cc2ccc3c(=O)c(-c4ccc(NS(C)(=O)=O)cc4)coc3c2)C1"
7.19

Follow-up item: "CS(=O)(=O)Nc1ccc(-c2coc3cc(C#Cc4ccccc4)ccc3c2=O)cc1"
6.48

Then "CC(C)(C)OC(=O)N1CCC(C#Cc2ccc3c(=O)c(-c4ccc(NS(C)(=O)=O)cc4)coc3c2)CC1" ?
7.07

Please do the same for "CS(=O)(=O)Nc1ccc(-c2coc3cc(C#CC4CCN(C(=O)C5CC5)CC4)ccc3c2=O)cc1" as well.
8.19

Note, next up: "CS(=O)(=O)Nc1ccc(-c2coc3cc(C#CC4CN(C(=O)CO)C4)ccc3c2=O)cc1"
7.82

Try "CS(=O)(=O)Nc1ccc(-c2coc3cc(C#Cc4cc[nH]c(=O)c4)ccc3c2=O)cc1" next.
8.05

Another compound to look at: "CS(=O)(=O)Nc1ccc(-c2coc3cc(C#CC4(N)CCCCC4)ccc3c2=O)cc1"
6.28

How about this compound: "CN1CCC(C(=O)N2CC(C#Cc3ccc4c(=O)c(-c5ccc(NS(C)(=O)=O)cc5)coc4c3)C2)CC1"
7.46

Further, for "CS(=O)(=O)Nc1ccc(-c2coc3cc(C#CC4(O)CCCC4)ccc3c2=O)cc1" ?
6.41

Ok, now "COCC#Cc1ccc2c(=O)c(-c3ccc(NS(=O)(=O)C4CC4)cc3)coc2c1"
7.02

Follow-up entry: "CC(C)(C)OC(=O)N1CC(C#Cc2ccc3c(=O)c(-c4ccc(NS(C)(=O)=O)cc4)coc3c2)C1"
8.05

"CS(=O)(=O)Nc1ccc(-c2coc3cc(C#CC4CN(C(=O)C5CC(F)(F)C5)C4)ccc3c2=O)cc1" ?
8.22

Another compound: "Cn1cnc(C#Cc2ccc3c(=O)c(-c4ccc(NS(C)(=O)=O)cc4)coc3c2)c1"
7.02
